Experiment: Microsomal stability assay, human liver microsomes;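 note: pooled human liver microsomes at 0.25 mg/mL with 1 µM compound and NADPH at 37 °C, pH 7.4, for 30 min, unchanged parent quantified by LC-MS/MS against the 0 min sample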
Measurement Context: human liver microsomal data
Measured Quantity: HLM (µL/min/mg)
Field: numeric (µL/min/mg). Do not append units.

Worked cases, answers included:
INSERT INTO results (compound, measured_quantity, units_label, readout_number) VALUES
  ('CO[C@H](C)C(=O)N[C@@H](Cc1cc(F)cc(F)c1)[C@H](O)CN[C@H]1CC2(CCC2)Oc2c(-c3cnc[nH]3)cc(CC(C)C)cc21 [compound 476]', 'HLM', 'µL/min/mg', 329),
  ('COCC(=O)N[C@@H](Cc1cc(F)cc(-c2nccs2)c1)[C@H](O)CN[C@@]1(C)CC2(CCC2)Oc2ncc(CC(C)(C)C)cc21 [compound 866]', 'HLM', 'µL/min/mg', 84),
  ('COCC(=O)N[C@@H](Cc1cc(F)cc(-c2nccs2)c1)C(=O)CN[C@H]1CC2(CCC2)Oc2ncc(CC(C)C)cc21 [compound 918]', 'HLM', 'µL/min/mg', 116),
  ('COCC(=O)N[C@@H](Cc1cc(Br)cc(-c2nccs2)c1)[C@H](O)CN[C@H]1CC2(CCC2)Oc2ncc(CC(C)(C)C)cc21 [compound 851]', 'HLM', 'µL/min/mg', 71),
  ('CO[C@H](C)C(=O)N[C@@H](Cc1cccc(-c2nccs2)c1)[C@H](O)CN[C@H]1CC2(CCC2)Oc2ncc(CC(C)(C)F)cc21 [Example 831]', 'HLM', 'µL/min/mg', 21);

Query block: Need HLM, item COCC(=O)N[C@@H](Cc1cccc(F)c1)[C@H](O)CN[C@H]1CC2(CCC2)Oc2c(Br)cc(CC(C)C)cc21 [compound 514]
Result block: 682

Query block: Need HLM, item CCOCC(=O)N[C@@H](Cc1cccc(-c2nccs2)c1)[C@H](O)CN[C@H]1CC2(CCC2)Oc2ncc([C@@H]3CC3(C)C)cc21 [compound 914]
Result block: 57

Query block: Need HLM, item COCC(=O)N[C@@H](Cc1ccc2c(c1)OCO2)[C@H](O)CN[C@H]1CC2(CCC2)Oc2c(-c3ccccn3)cc(CC(C)C)cc21 [compound 767]
Result block: 157

Query block: Need HLM, item CO[C@H](C)C(=O)N[C@@H](Cc1cccc(-c2ncco2)c1)[C@H](O)CN[C@H]1CC2(CCC2)Oc2ncc(CC(C)(C)C)cc21 [Example 836]
Result block: 56

Query block: Need HLM, item C#Cc1cccc(C[C@H](NC(=O)[C@@H](C)OC)[C@H](O)CN[C@H]2CC3(CCC3)Oc3ncc(CC(C)C)cc32)c1 [Example 777]
Result block: 29

Query block: Need HLM, item C[C@@H](O)C(=O)N[C@@H](Cc1ccc(F)cc1)[C@H](O)CN[C@H]1CC2(CCC2)Oc2ncc(CC(C)(C)C)cc21 [compound 442]
Result block: 117.333
